- SYSTEM TESTED: F876L mutant Androgen Receptor (AR-F876L) (Homo sapiens, UniProt P10275, F877L)
- Construct: expressed in transfected cells; host or cells: LNCaP (LNCaP F876L)
- Sequence (P10275 1-920 F877L): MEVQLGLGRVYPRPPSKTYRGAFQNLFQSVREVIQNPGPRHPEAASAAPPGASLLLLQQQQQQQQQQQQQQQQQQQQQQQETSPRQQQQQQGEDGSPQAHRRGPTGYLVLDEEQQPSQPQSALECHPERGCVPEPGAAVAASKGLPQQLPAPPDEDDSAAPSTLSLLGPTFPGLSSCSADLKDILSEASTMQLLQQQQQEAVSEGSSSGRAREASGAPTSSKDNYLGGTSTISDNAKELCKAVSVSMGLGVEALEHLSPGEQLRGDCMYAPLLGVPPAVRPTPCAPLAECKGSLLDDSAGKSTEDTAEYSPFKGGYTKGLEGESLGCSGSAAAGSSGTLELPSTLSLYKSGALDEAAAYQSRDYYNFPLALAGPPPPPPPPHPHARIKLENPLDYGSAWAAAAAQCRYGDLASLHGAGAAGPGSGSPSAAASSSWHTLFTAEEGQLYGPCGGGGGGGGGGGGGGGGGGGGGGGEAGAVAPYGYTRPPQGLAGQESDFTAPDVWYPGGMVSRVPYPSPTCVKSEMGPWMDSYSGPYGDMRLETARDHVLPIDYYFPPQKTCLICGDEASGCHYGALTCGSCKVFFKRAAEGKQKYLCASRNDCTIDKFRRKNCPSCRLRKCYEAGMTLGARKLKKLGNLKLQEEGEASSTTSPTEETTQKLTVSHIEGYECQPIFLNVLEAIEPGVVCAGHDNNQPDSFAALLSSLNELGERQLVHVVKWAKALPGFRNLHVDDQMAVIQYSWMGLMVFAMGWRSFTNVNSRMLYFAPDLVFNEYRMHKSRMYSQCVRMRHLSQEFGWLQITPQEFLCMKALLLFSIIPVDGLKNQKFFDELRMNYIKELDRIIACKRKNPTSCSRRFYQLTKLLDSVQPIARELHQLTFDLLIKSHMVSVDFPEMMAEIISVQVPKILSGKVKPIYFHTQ
- EXPERIMENTAL PROTOCOL: LNCaP-AR-F876L ANT reporter assay (ARE firefly luciferase, antagonist mode)
- Assay type: cell-based
- TEST SETTINGS: maximum % inhibition of R1881 control response over tested concentration range; read-out: LNCaP-AR-F876L ANT MAX % Inh
I'd appreciate it if you could supply Emax values for the items below.
Value expressed in %; do not type the unit.

I'd like to know its Emax. The molecule in question is `Cc1cc(N2C(=O)C3(CCC3)N(c3ccc(OCCN4CCN(C)CC4)cc3)C2=S)cnc1C#N`
98.4

Do the same for `N#Cc1ncc(N2C(=O)C3(CCC3)N(c3ccc(OCCN4CCNCC4)c(F)c3)C2=S)cc1C(F)(F)F` please
95.3

Then this molecule: `Cc1ccc(N2C(=S)N(c3cnc(C#N)c(C(F)(F)F)c3)C(=O)C2(C)C)cc1`
100

And the next one, `COc1cc(F)ccc1N1C(=S)N(c2cnc(C#N)c(C(F)(F)F)c2)C(=O)C12CCC2` ?
99.2

Do the same for `N#Cc1ncc(N2C(=O)C3(CCC3)N(c3ccc(OC(F)(F)F)cc3)C2=S)cc1C(F)(F)F` please
99

Query `N#Cc1ncc(N2C(=O)C3(CCC3)N(c3ccc(C(=O)N4CCCC4)c(F)c3)C2=S)cc1C(F)(F)F` next
102

What do you have for `Cc1ccc(N2C(=S)N(c3cnc(C#N)c(C)c3)C(=O)C23CCC3)cc1` ?
101

Consider next the molecule `Cc1ccc(N2C(=S)N(c3cnc(C#N)c(C(F)(F)F)c3)C(=O)C23CCC3)cc1F` in the same way.
96.1

----------
- SYSTEM TESTED: UniProt:P10275
- Sequence (P10275 560-920 limits assumed): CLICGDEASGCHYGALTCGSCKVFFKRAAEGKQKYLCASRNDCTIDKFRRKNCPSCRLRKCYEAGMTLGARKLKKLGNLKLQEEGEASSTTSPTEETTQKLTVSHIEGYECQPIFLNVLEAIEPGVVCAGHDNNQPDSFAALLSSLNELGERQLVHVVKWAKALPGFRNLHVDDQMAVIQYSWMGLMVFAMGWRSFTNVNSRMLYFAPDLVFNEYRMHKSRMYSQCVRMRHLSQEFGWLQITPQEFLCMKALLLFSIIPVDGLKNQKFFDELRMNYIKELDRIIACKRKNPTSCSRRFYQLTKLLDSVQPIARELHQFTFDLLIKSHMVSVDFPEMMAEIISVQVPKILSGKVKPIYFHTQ
- EXPERIMENTAL PROTOCOL: AR-VP16 DNA binding assay, HepG2
- TEST SETTINGS: HepG2, antagonist mode, 90 pM R1881, 48 hours; read-out: IC50 VP16 WT
Assign IC50 to each entry below.
Give just the numeric value; nM need not be written.

// fetch UniProt:P10275 IC50 for N#Cc1ncc(N2C(=O)C3(CCC3)N(c3ccc(C(=O)NCCCO)c(F)c3)C2=S)cc1C(F)(F)F [Cpd 40]
24

Try this compound next: Cc1cc(N2C(=O)C3(CCC3)N(c3ccc(OC4CCN(CCO)CC4)cc3)C2=S)cnc1C#N [Cpd 60]
2050

Also, N#Cc1ncc(N2C(=O)C3(CCC3)N(c3ccc(OC4CCNCC4)cc3)C2=S)cc1C(F)(F)F [Cpd 35] please.
3390

----------
- SYSTEM TESTED: F876L mutant Androgen Receptor (AR-F876L) (Homo sapiens, UniProt P10275, F877L)
- Construct: expressed in transfected cells; host or cells: LNCaP (LNCaP F876L)
- Sequence (P10275 1-920 F877L): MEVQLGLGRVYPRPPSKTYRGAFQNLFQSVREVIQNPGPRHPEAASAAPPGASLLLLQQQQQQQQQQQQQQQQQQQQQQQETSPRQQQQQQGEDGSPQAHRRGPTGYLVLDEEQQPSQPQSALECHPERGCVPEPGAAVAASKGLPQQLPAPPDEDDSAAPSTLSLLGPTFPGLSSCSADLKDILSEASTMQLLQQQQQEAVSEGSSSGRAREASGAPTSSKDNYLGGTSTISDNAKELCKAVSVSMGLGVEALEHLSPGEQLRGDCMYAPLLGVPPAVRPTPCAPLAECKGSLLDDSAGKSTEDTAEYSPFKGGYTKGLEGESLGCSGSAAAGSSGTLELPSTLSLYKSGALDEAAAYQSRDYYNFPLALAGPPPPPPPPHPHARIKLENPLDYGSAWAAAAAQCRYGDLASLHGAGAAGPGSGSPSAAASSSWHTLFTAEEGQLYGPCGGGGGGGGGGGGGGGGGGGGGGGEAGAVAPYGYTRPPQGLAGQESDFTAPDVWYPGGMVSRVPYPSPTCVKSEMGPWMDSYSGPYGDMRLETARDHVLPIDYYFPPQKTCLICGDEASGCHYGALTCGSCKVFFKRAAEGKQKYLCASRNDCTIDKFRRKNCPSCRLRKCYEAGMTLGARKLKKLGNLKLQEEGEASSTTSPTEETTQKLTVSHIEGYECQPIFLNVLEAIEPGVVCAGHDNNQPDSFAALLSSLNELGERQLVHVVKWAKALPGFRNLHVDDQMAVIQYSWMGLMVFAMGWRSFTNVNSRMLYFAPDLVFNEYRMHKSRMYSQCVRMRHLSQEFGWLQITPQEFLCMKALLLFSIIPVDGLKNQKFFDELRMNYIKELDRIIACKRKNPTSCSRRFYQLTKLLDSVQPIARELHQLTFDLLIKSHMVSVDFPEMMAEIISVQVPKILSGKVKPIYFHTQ
- EXPERIMENTAL PROTOCOL: LNCaP-AR-F876L ANT reporter assay (ARE firefly luciferase, antagonist mode)
- Type: cell-based
- TEST SETTINGS: maximum % inhibition of R1881 control response over tested concentration range; read-out: LNCaP-AR-F876L ANT MAX % Inh
Exercise: for every item that follows, state its recorded Emax.
Only the number, expressed in %, is required.

Returns the measured Emax for the input compound. Input: `CC(C)NC(=O)c1ccc(N2C(=S)N(c3cnc(C#N)c(C(F)(F)F)c3)C(=O)C23CCC3)cc1F`
99.6

Next compound up: `Cc1cc(N2C(=O)C3(CCC3)N(c3ccc(C(=O)Nc4ccccc4F)c(F)c3)C2=S)cnc1C#N`
99.9

Now the compound `Cc1ccc(CNC(=O)c2ccc(N3C(=S)N(c4cnc(C#N)c(C(F)(F)F)c4)C(=O)C34CCC4)cc2F)o1`
97.9
